Each entry below carries its reported inhibition.
system: Protein Mdm4 (Homo sapiens) + E3 ubiquitin-protein ligase Mdm2 (Homo sapiens) (UniProt O15151+Q00987)
Sequence (O15151 whole entry, looked up): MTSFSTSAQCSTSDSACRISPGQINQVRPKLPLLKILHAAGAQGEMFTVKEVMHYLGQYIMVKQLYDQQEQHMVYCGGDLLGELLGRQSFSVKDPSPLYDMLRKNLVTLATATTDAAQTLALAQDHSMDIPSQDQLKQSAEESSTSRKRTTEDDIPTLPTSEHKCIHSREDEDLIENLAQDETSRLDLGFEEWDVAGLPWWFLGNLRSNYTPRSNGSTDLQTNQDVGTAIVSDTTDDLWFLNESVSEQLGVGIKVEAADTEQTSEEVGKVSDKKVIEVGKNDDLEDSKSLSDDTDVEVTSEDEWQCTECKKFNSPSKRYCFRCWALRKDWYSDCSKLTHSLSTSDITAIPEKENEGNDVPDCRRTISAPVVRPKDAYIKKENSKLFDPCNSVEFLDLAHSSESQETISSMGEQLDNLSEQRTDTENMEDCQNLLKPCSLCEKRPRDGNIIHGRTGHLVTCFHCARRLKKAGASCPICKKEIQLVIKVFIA
Sequence (Q00987 whole entry, looked up): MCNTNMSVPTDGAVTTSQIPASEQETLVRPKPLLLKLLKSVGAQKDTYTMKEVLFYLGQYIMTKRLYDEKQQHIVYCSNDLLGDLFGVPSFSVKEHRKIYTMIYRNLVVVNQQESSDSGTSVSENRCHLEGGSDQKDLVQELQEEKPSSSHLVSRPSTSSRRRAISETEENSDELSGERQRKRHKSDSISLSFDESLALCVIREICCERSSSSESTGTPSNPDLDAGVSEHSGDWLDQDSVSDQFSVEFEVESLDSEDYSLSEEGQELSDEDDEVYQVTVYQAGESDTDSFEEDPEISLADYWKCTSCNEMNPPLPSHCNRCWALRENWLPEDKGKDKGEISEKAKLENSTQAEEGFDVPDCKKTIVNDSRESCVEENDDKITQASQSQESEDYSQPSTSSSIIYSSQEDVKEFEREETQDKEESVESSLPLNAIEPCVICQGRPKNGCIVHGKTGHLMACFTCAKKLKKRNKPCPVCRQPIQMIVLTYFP
test_protocol: Mdm2-MdmX complex disruptors, retested hits, confirmation, luminescence, single concentration (AID 489028)
experimental_parameters: Mdm2-MdmX binding, luminescent assay; at 8 µM; active compounds read high
Out of some 10,000 compounds screened, about 5,600 (56%) were called active. So high a share suggests a set chosen from earlier hits. Not all results are given here.
result_type: inhibition (%)

molecule: Cc1ccc(CS(=O)(=O)c2ncc(Cl)c(C(=O)Nc3nnc(C)s3)n2)cc1
result_type: inhibition
reported_measurement: 96.5

molecule: CCc1nn(-c2cc(Oc3cccc4ccccc34)nc(-c3ccccc3)n2)c(N)c1C#N
result_type: inhibition
reported_measurement: 13.9

molecule: CCOC(=O)c1c(NC(=O)c2ccc(S(=O)(=O)N(C)CC3CCCO3)cc2)sc2c1CC(C)(C)NC2(C)C (stereo not drawn)
result_type: inhibition
reported_measurement: 47.1

molecule: CCn1c(O)c(N=NC(=O)c2cccc(S(=O)(=O)N3CCCCC3)c2)c2ccccc21
result_type: inhibition
reported_measurement: 36.7

molecule: COc1ccc(CS(=O)/C(Cl)=C(/Cl)C(=O)Nc2ccc(OC)nc2)cc1 (stereo not drawn)
result_type: inhibition
reported_measurement: 100

molecule: Cc1ccc(N(Cc2cc(=O)[nH]c3ccccc23)C(=O)CCl)cc1
result_type: inhibition
reported_measurement: 74.9

molecule: Cc1ccccc1C(=O)N1CCN(c2ccc(NC(=O)c3cccs3)cc2)CC1
result_type: inhibition
reported_measurement: 48.6

molecule: COc1ccc(NC(=O)/C(Cl)=C(/Cl)S(=O)Cc2ccc(C)cc2)cn1 (stereo not drawn)
result_type: inhibition
reported_measurement: 99.5

====

system: Protein Mdm4 (Homo sapiens) + E3 ubiquitin-protein ligase Mdm2 (Homo sapiens) (UniProt O15151+Q00987)
test_protocol: Mdm2-MdmX complex disruptors, retested hits, confirmation, luminescence, single concentration (AID 489028)
experimental_parameters: Mdm2-MdmX binding, luminescent assay; at 8 µM; active compounds read high
Screen size: about 10,000 compounds; about 5,600 (56%) were called active. So high a share suggests a set chosen from earlier hits. These entries were drawn from the full list.
Decision: inhibition >= 50% yields True, all other cases yield False.

compound: CC(=O)Nc1nc(C)c(-c2csc(Nc3ccc(S(N)(=O)=O)cc3)n2)s1
classification: False
--
compound: COc1ccc(N=Cc2c(O)[nH]c3ccccc23)cc1OC
classification: False
--
compound: CN(C)CCCN(C(=O)c1ccc(S(=O)(=O)N2CCCCCC2)cc1)c1nc2cc3c(cc2s1)OCCO3
classification: False
--
compound: CN(Cc1ccccc1)CC(O)COc1ccc(CNCc2cc3ccccc3s2)cc1 (stereo unspecified)
classification: False
--
compound: COc1ccc(-c2cn[nH]c2-c2ccc(OC)cc2)cc1
classification: True
--
compound: CN(C)CCCn1c(=O)n(Cc2ccccc2)c(=O)c2c3c(sc21)CCCCC3
classification: False
--
compound: Cc1nnc(N/N=C/c2ccccn2)[nH]c1=O
classification: True
--
compound: OCCCNc1nccc(-c2cc(Nc3cccc(Cl)c3)ncn2)n1
classification: True
--
compound: COc1ccc(-c2nc3cc(C)ccn3c2NC2CCCCC2)cc1SC1CCCCC1
classification: False
--
compound: O=C(Nc1nc2ccc([N+](=O)[O-])cc2s1)c1ccc(S(=O)(=O)N2CCCc3ccccc32)cc1
classification: True
--
compound: O=[N+]([O-])c1c(NCCO)cc(Sc2nc3ccccc3s2)c2nonc12
classification: True
--
compound: CCCCN1C(=O)/C(=C/C=C2/C=Cc3ccccc3N2CC)SC1=S
classification: False
--
compound: COc1ccc(-c2nn(C)c(=O)c3ccccc23)cc1NC(=O)COc1ccccc1
classification: False
--
compound: COc1cccc(CNC(=O)Cc2csc(Nc3nc(=S)[nH]c4ccccc34)n2)c1
classification: False
--
compound: NC(=O)c1sc2nc3c(c(-c4ccccc4)c2c1N)CCC3
classification: True
--
compound: COC(=O)c1cc(NC(=O)c2nn(C)c(=O)c3ccccc23)cc(C(=O)OC)c1
classification: False
--
compound: Cc1ccc(-c2nc3ccccc3[nH]2)cc1NC(=O)c1sc2ccccc2c1Cl
classification: True
--
compound: Cc1ccc2sc(N(CCN(C)C)C(=O)/C=C/c3cccs3)nc2c1C
classification: False
--
compound: Cc1nnc(NC(=O)Nc2ccc(Cl)c(Cl)c2)s1
classification: True
--
compound: Cc1[nH]nc(-c2ccc(OCc3cnn(-c4ccccc4)c3)cc2O)c1Oc1ccc(Cl)cc1
classification: False
--
compound: CN(C)CC(O)COc1ccc(C(C)(C)c2ccc(OCC(O)CN(C)C)cc2)cc1 (stereo unspecified)
classification: True
--
compound: CCN1/C(=C\c2ccc3ccccc3[n+]2CC)Sc2cc(C)ccc21
classification: True
--
compound: Cc1cccc(NS(=O)(=O)c2ccc(-c3cnc(C4CC4)o3)cc2)c1
classification: False
--
compound: Cc1nc(SCC(=O)Nc2cc(C)on2)c2c(C)c(C)sc2n1
classification: False
--
compound: CN(C)CCCN(C(=O)c1ccc(S(=O)(=O)N2CCCc3ccccc32)cc1)c1nc2ccc(F)cc2s1
classification: False
--
compound: Cc1cccc(N(C)C(=O)c2cc3c(=O)[nH]c4ccc(C)cc4c3s2)c1
classification: True

// data source = PubChem BioAssay AID489028
